Where these numbers come from: PubChem BioAssay (NCI)

Exercise: state measured TGI for each of the compounds provided.
# Test system: HOP-62 NSCLC
# assaySummary: NCI tumour cell line growth inhibition, 48 h

See these solved cases before continuing.
INSERT INTO assay_data (compound, experimentalresult) VALUES
  ('O=C(CC(=O)N(C(=O)c1ccccc1)c1ccc(Cl)cc1)N/N=C\c1ccccc1O', '89.2 µM'),
  ('CCOC(=O)C1c2[nH]c3ccccc3c2CCN1C(=O)c1ccco1 (stereo not given)', '> 10 µM');

Below is a list of compounds. For each, state its recorded TGI.
1. Cc1cc2c(cc1C)N1Cc3c(ccc(C)c3C)N(C2)C1 (tested in a mixture with another compound)
2. CS(=O)(=O)N1CCN(Cc2cc3nc(-c4cccc5[nH]ncc45)nc(N4CCOCC4)c3s2)CC1
3. COc1ccc2nc3cc(Cl)ccc3c(NCCC(=O)OCC(O)C(O)C(O[C@H](C)C(=O)NC(C)C(=O)NC(CCC(N)=O)C(=O)OCc3ccccc3)C(C=O)NC(C)=O)c2c1 (stereo not given in full)

Response:
> 100 µM
> 100 µM
33.9 µM
